# Target system: T1, CD22 (antigen in the Biacore assay) (human, UniProt P20273 20-687, limits assumed)
# T1 sequence: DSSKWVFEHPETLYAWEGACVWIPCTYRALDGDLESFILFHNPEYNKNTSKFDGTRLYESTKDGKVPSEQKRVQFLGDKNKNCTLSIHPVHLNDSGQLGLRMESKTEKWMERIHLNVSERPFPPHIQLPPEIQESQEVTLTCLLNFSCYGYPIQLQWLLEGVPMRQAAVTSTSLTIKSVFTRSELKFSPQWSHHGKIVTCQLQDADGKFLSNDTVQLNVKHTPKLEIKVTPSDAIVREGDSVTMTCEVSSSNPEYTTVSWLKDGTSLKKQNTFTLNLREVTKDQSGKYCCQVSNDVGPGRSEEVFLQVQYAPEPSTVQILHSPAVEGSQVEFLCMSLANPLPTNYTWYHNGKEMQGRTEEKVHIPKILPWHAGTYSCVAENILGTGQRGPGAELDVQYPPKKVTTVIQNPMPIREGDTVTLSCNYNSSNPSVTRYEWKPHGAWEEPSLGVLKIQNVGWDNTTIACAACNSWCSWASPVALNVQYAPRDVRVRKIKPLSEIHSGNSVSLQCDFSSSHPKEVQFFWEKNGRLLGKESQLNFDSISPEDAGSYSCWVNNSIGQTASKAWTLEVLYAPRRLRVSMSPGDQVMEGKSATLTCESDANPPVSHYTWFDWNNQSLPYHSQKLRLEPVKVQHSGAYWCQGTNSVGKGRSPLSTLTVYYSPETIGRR
# Run description: SPR (Biacore) at 37° C
Readout: koff (s⁻¹)
Please reply with the bare figure in s⁻¹ and do not write the unit itself.

INSERT INTO assay_data (binder, readout, value) VALUES
  ('humanized LL2 L1 + H11 (antibody, V domains shown, Human IgG1 frameworks; also called H11L1; VL1-VH11) VH: QVQLVQSGAEVKKPGASVKMSCKASGYTFTSYWLHWVRQAPGQRLEWMGYINPRNDYTEYNQNFKDRATITADTSASTAYMELSSLRSEDTAVYYCARRDITTFYWGQGTTLTVSS VL: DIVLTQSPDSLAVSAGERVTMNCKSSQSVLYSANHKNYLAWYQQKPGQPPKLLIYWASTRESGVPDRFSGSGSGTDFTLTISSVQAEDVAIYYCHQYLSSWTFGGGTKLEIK', 'koff', '1.71e-09');

Please find the next binder below.
Q: Recorded koff of humanized LL2 L1 + H3 (antibody, V domains shown, Human IgG1 frameworks; also called H3L1) VH: QVQLQQSGAEVKKPGASVKVSCKASGYTFTSYWLHWIRQAPGQRLEWIGYINPRNDYTEYSQKFQGRATLTADTSASTAYMELSSLRSEDTAVYYCARRDITTFYWGQGTTLTVSS VL: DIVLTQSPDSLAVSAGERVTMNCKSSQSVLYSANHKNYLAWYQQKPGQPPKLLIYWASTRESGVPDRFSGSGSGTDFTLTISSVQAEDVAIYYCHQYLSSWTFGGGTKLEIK , please.
Result: 3.09e-06
